FYI, the data here is from patent US8129371B2.

As shown below, each of these compounds has a reported IC50 value.
- ASSAYED SYSTEM: PI3K (Homo sapiens, UniProt P42336)
- Construct: PI3 Kinase α IC50; other: PI3 Kinase α; other: PI3 Kinase α isoform, fluorescence polarization
- Sequence (P42336 whole entry, canonical isoform): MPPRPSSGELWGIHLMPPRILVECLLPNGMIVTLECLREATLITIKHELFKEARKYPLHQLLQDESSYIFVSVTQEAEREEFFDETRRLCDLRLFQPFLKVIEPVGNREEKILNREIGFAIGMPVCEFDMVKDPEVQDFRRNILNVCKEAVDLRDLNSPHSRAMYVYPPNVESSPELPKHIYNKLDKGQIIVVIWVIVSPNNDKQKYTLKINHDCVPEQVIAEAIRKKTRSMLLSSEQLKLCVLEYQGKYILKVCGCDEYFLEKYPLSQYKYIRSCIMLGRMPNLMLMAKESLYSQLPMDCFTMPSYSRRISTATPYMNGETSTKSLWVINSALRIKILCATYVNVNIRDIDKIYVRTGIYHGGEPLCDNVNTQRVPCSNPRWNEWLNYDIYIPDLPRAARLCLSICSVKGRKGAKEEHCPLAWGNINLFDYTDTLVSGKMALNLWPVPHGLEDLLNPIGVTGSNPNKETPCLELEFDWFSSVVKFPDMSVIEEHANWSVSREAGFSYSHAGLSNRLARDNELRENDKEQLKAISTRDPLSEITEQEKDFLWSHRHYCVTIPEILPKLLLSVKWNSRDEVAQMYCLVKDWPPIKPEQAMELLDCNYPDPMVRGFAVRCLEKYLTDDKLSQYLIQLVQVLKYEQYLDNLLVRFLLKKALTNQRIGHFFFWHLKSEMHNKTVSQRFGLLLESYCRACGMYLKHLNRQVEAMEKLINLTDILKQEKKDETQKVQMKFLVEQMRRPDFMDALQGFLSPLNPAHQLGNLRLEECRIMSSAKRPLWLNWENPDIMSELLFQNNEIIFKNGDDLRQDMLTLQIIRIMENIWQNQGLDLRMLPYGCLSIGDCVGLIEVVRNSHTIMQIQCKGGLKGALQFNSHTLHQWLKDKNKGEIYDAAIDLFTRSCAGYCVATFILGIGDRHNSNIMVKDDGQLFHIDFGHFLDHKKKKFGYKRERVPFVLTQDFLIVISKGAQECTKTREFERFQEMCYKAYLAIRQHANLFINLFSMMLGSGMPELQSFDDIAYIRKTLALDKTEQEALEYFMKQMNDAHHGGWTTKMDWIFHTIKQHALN
- EXPERIMENT DESCRIPTION: Fluorescence polarization assay for PI3K
- Assay type: biochemical
- ASSAY SETUP: PI3 Kinase α; read-out: PI3 Kinase α IC50

- COMPOUND: "CN(C)CCNC(=O)Nc1ccc(-c2nc(N3CC4CCC(C3)O4)c3cnn(C4CCC5(CC4)OCCO5)c3n2)cc1 [Example 133]"
  UNIT ABBREVIATION: "nM"
  IC50: 905
- COMPOUND: "CN1CCN(c2ccc(NC(=O)Nc3ccc(-c4nc(N5CC6CCC(C5)O6)c5cnn(CCF)c5n4)cc3)cc2)CC1 [Example 246]"
  UNIT ABBREVIATION: "nM"
  IC50: 96
- COMPOUND: "CC(C)(C)OC(=O)N1CCC(n2ncc3c(N4CC5CCC(C4)O5)nc(-c4ccc(NC(=O)Nc5ccncc5)cc4)nc32)CC1 [Example 25]"
  UNIT ABBREVIATION: "nM"
  IC50: 595
- COMPOUND: "CNC(=O)Nc1ccc(-c2nc(N3CC4CCC(C3)O4)c3cnn(C4CCC5(CC4)OCCO5)c3n2)cc1 [Example 62]"
  UNIT ABBREVIATION: "nM"
  IC50: 2010
- COMPOUND: "O=C(Nc1ccc(-c2nc(N3CC4CCC(C3)O4)c3cnn(C4CCN(CC(F)(F)F)CC4)c3n2)cc1)OCCO [Example 209]"
  UNIT ABBREVIATION: "nM"
  IC50: 3710
- COMPOUND: "COC(=O)Nc1ccc(-c2nc(N3CC4CCC(C3)O4)c3cnn(C4CCN(C(=O)OC)CC4)c3n2)cc1 [Example 119]"
  UNIT ABBREVIATION: "nM"
  IC50: 4670
- COMPOUND: "N#CCCn1ncc2c(N3CC4CCC(C3)O4)nc(-c3ccc(NC(=O)Nc4ccc(N5CCOCC5)nc4)cc3)nc21 [Example 223]"
  UNIT ABBREVIATION: "nM"
  IC50: 1660

* * *

- ASSAYED SYSTEM: PI3K (Homo sapiens, UniProt P42336)
- Construct: PI3 Kinase α IC50; other: PI3 Kinase α; other: PI3 Kinase α isoform, fluorescence polarization
- EXPERIMENT DESCRIPTION: Fluorescence polarization assay for PI3K
- Format: biochemical
- ASSAY SETUP: PI3 Kinase α; read-out: PI3 Kinase α IC50
pIC50: −log10 of the molar value.
READOUT LABEL: pIC50

- COMPOUND: "COC(=O)N1CCC(n2ncc3c(N4CC5CCC(C4)O5)nc(-c4ccc(NC(=O)Nc5ccc(N6CCN(C)CC6)cc5)cc4)nc32)CC1"
  MEASUREMENT: 6.93
- COMPOUND: "COC(=O)N1CCC(n2ncc3c(N4CC5CCC(C4)O5)nc(-c4ccc(NC(=O)Nc5ccccc5CO)cc4)nc32)CC1"
  MEASUREMENT: 5.86
- COMPOUND: "CCn1ncc2c(N3CC4CCC(C3)O4)nc(-c3ccc(NC(=O)N[C@H]4CC[C@H](N)CC4)cc3)nc21 (relative stereo)"
  MEASUREMENT: 5.54
- COMPOUND: "CN(C)c1ccc(NC(=O)Nc2ccc(-c3nc(N4CC5CCC(C4)O5)c4cnn(CCF)c4n3)cc2)cc1"
  MEASUREMENT: 6.06

* * *

- ASSAYED SYSTEM: PI3K (Homo sapiens, UniProt P48736)
- Construct: PI3 Kinase γ IC50; other: PI3 Kinase γ; other: PI3 Kinase γ isoform, fluorescence polarization
- Sequence (P48736 whole entry, canonical isoform): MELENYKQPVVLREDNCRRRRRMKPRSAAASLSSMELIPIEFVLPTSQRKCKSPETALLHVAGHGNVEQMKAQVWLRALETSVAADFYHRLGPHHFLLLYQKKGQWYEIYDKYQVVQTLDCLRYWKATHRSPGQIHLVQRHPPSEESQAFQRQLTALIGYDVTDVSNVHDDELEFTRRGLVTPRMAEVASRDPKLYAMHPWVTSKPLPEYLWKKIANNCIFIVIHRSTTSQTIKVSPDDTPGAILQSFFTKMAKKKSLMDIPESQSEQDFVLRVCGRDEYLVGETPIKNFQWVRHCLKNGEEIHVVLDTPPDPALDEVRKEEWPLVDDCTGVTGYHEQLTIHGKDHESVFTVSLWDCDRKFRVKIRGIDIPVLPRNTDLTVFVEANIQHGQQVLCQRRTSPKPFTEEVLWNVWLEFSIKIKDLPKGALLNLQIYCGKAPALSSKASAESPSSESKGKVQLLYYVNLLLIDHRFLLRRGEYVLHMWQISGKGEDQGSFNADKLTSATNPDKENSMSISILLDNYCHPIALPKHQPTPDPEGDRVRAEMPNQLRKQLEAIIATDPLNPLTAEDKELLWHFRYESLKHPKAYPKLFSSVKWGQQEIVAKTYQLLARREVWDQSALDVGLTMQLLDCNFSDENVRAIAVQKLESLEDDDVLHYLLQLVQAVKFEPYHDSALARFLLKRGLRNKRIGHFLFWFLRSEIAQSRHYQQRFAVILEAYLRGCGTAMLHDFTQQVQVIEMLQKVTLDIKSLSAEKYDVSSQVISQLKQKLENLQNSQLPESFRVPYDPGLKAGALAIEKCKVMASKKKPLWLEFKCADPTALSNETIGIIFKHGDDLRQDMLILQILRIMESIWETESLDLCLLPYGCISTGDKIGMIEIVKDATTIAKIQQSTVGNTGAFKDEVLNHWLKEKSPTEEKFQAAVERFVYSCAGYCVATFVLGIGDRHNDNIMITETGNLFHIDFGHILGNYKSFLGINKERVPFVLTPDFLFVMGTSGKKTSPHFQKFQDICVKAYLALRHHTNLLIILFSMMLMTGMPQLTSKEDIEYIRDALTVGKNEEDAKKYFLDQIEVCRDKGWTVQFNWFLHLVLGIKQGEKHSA
- EXPERIMENT DESCRIPTION: Fluorescence polarization assay for PI3K
- Format: biochemical
- ASSAY SETUP: PI3 Kinase γ; read-out: PI3 Kinase γ IC50
pIC50: −log10 of the molar value.
Each entry below carries its recorded pIC50.

- COMPOUND: "COC(=O)N1CCC(n2ncc3c(N4CC5CCC(C4)O5)nc(-c4ccc(NC(=O)Nc5ccccc5CO)cc4)nc32)CC1 [Example 172]"
  LT GT EQ: "="
  pIC50: 5.76
- COMPOUND: "CCn1ncc2c(N3CC4CCC(C3)O4)nc(-c3ccc(NC(=O)Nc4ccc(C(N)=O)cc4)cc3)nc21 [Example 285]"
  LT GT EQ: "="
  pIC50: 6.28
- COMPOUND: "CCn1ncc2c(N3CC4CCC(C3)O4)nc(-c3ccc(NC(=O)N[C@H]4CC[C@@H](N)CC4)cc3)nc21 (relative stereo) [Example 229]"
  LT GT EQ: "<"
  pIC50: 5.00
- COMPOUND: "CC(C)C(=O)N1CCC(n2ncc3c(N4CC5CCC(C4)O5)nc(-c4ccc(NC(=O)NCCF)cc4)nc32)CC1 [Example 85]"
  LT GT EQ: "<"
  pIC50: 5.00
- COMPOUND: "O=C(Nc1ccc(CO)cc1)Nc1ccc(-c2nc(N3C4CCC3COC4)c3cnn(CC(F)(F)F)c3n2)cc1 [Example 269]"
  LT GT EQ: "="
  pIC50: 5.67
- COMPOUND: "O=C(NCCF)Nc1ccc(-c2nc(N3CC4CCC(C3)O4)c3cnn(C4CCN(Cc5cccnc5)CC4)c3n2)cc1 [Example 16]"
  LT GT EQ: "<"
  pIC50: 5.00
- COMPOUND: "CC(C)(C)n1ncc2c(N3CC4CCC(C3)O4)nc(-c3ccc(NC(=O)OCCO)cc3)nc21 [Example 98]"
  LT GT EQ: "<"
  pIC50: 5.00
- COMPOUND: "CCNC(=O)Nc1ccc(-c2nc(N3CC4CCC(C3)O4)c3cnn(C4CCN(Cc5cccnc5)CC4)c3n2)cc1 [Example 15]"
  LT GT EQ: "<"
  pIC50: 5.00
- COMPOUND: "COC(=O)Nc1ccc(-c2nc(N3CC4CCC(C3)O4)c3cnn(C)c3n2)cc1 [Example 60]"
  LT GT EQ: "<"
  pIC50: 5.00
- COMPOUND: "CCOC(=O)N1CCC(n2ncc3c(N4CC5CCC(C4)O5)nc(-c4ccc(NC(=O)NCCCNC)cc4)nc32)CC1 [Example 38]"
  LT GT EQ: "="
  pIC50: 4.96
- COMPOUND: "CN(C)CCn1ncc2c(N3CC4CCC(C3)O4)nc(-c3ccc(NC(=O)Nc4ccc(CCO)cc4)cc3)nc21 [Example 155]"
  LT GT EQ: "="
  pIC50: 5.93
- COMPOUND: "CN1CCN(c2ccc(NC(=O)Nc3ccc(-c4nc(N5CC6CCC(C5)O6)c5cnn(CCO)c5n4)cc3)cn2)CC1 [Example 205]"
  LT GT EQ: "="
  pIC50: 5.45
- COMPOUND: "CC(C)n1ncc2c(N3CC4CCC(C3)O4)nc(-c3ccc(NC(=O)OCC(O)CO)cc3)nc21 (centres unmarked) [Example 146]"
  LT GT EQ: "="
  pIC50: 5.12
- COMPOUND: "CCNC(=O)Nc1ccc(-c2nc(N3CC4CCC(C3)O4)c3cnn(C4CCN(C(=O)C(C)C)CC4)c3n2)cc1 [Example 83]"
  LT GT EQ: "<"
  pIC50: 5.00
- COMPOUND: "Nc1cccc(COC(=O)Nc2ccc(-c3nc(N4CC5CCC(C4)O5)c4cnn(CC(F)(F)F)c4n3)cc2)c1 [Example 254]"
  LT GT EQ: "="
  pIC50: 4.92
- COMPOUND: "O=C(Nc1ccc(-c2nc(N3C4CCC3COC4)c3cnn(CC(F)(F)F)c3n2)cc1)NC1CC1 [Example 271]"
  LT GT EQ: "="
  pIC50: 5.05
- COMPOUND: "COC(=O)N1CCC(n2ncc3c(N4CC5CCC(C4)O5)nc(-c4ccc(NC(=O)NC5CC5)cc4)nc32)CC1 [Example 12]"
  LT GT EQ: "<"
  pIC50: 5.00
- COMPOUND: "CCn1ncc2c(N3CC4CCC(C3)O4)nc(-c3ccc(NC(=O)Nc4ccc(C(=O)NN5CCCC5)cc4)cc3)nc21 [Example 290]"
  LT GT EQ: "="
  pIC50: 6.12
- COMPOUND: "CNC(=O)Nc1ccc(-c2nc(N3CC4CCC(C3)O4)c3cnn([C@H]4CC[C@@H](O)CC4)c3n2)cc1 [Example 109]"
  LT GT EQ: "<"
  pIC50: 5.00
- COMPOUND: "CCn1ncc2c(N3CC4CCC(C3)O4)nc(-c3ccc(NC(=O)NCC(=O)NCCN(C)C)cc3)nc21 [Example 278]"
  LT GT EQ: "="
  pIC50: 6.31
- COMPOUND: "CN1CCN(c2ccc(NC(=O)Nc3ccc(-c4nc(N5CC6CCC(C5)O6)c5cnn(C6CCC7(CC6)OCCO7)c5n4)cc3)cc2)CC1 [Example 135]"
  LT GT EQ: "="
  pIC50: 5.77
- COMPOUND: "O=C(Nc1ccc(-c2nc(N3C[C@@H]4C[C@H]3CO4)c3cnn(CC(F)(F)F)c3n2)cc1)OCCO [Example 291]"
  LT GT EQ: "<"
  pIC50: 5.00
- COMPOUND: "CC(C)OC(=O)N1CCC(n2ncc3c(N4CC5CCC(C4)O5)nc(-c4ccc(NC(=O)Nc5ccncc5)cc4)nc32)CC1 [Example 73]"
  LT GT EQ: "="
  pIC50: 6.17
- COMPOUND: "CC(C)C(=O)N1CCC(n2ncc3c(N4CC5CCC(C4)O5)nc(-c4ccc(NC(=O)NCCO)cc4)nc32)CC1 [Example 84]"
  LT GT EQ: "<"
  pIC50: 5.00
- COMPOUND: "O=C(Nc1ccncc1)Nc1ccc(-c2nc(N3CC4CCC(C3)O4)c3cnn(C4CCN(Cc5cccnc5)CC4)c3n2)cc1 [Example 19]"
  LT GT EQ: "="
  pIC50: 6.41
- COMPOUND: "CCn1ncc2c(N3CC4CCC(C3)O4)nc(-c3ccc(NC(=O)Nc4ccc(C(=O)NN(C)C)cc4)cc3)nc21 [Example 289]"
  LT GT EQ: "="
  pIC50: 6.15
- COMPOUND: "O=C(Nc1ccc(CO)cc1)Nc1ccc(-c2nc(N3CC4CCC(C3)O4)c3cnn(CCO)c3n2)cc1 [Example 201]"
  LT GT EQ: "="
  pIC50: 5.75
- COMPOUND: "Cn1ncc2c(N3CC4CCC(C3)O4)nc(-c3cccc(O)c3)nc21 [Example 61]"
  LT GT EQ: "="
  pIC50: 5.74
- COMPOUND: "CC(C)(C)n1ncc2c(N3CC4CCC(C3)O4)nc(-c3ccc(NC(=O)Nc4cccnc4)cc3)nc21 [Example 100]"
  LT GT EQ: "="
  pIC50: 6.10
